Biological target: T1, 4H3926-bN
T1 chain: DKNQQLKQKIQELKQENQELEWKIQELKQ
Assay: two-hybrid library CCNG1;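 also: natural log of median RNA to DNA barcode read ratio; higher means stronger binding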
Could you please report measured interaction score for the items listed next?
The answer should be written as a number, with no unit following it.

I have this binder here, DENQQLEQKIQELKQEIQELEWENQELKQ [4H1348-bN] , and I need its recorded interaction score. -0.478

Same for DKNQQLEQENQELKQKIQELEWEIQELKQ [4H3298-bN] -1.32

Same for DKNQQLEQEIQELKQENQELKWEIQELKQ [4H3162-bN] 0.163

Same for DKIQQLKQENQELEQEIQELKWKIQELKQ [4H2702-bN] 0.223

Same for DKNQQLKQEIQELEQENQELKWKIQELEQ [4H3613-bN] 0.45

Same for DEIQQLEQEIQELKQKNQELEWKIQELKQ [4H118-bN] 1.02

Same for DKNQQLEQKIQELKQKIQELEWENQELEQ [4H3427-bN] -1.1
